Molecular target: T1, FBXL12, Q9NXK8
T1 chain: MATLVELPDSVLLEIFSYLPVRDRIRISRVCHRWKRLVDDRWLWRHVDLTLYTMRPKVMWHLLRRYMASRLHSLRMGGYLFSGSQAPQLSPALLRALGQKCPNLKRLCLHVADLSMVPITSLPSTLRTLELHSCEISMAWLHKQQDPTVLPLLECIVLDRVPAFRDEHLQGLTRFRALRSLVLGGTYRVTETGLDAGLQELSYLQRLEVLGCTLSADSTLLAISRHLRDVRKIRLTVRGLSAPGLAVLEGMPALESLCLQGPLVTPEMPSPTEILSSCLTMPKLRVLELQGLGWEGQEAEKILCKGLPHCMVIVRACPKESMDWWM
Experiment: median log2 fold change of GCK-ALFA target abundance (FLAG IP / Myc IP barcode read proportion) (log2 ratio); each designed protein is fused to an ALFA-tag nanobody in HEK293 cells to bring the named protein to FLAG-tagged glucokinase (GCK); Myc marks an untargeted standard; higher = target protein stabilised (more abundant)
Details: target protein: 3xFLAG-MCP-GCK-ALFA reporter; HEK293 landing pad (RPLP)
Attribute: median log2 fold change
# answer = number (no unit)

Example entries begin here.
FBXL12_hotspot_59_83 (protein) MIEVRVRGPVEEALRRALELLRAARELLKKHKDSPLYPRILEIFESALREAVRLAVEAGDEEALREAEEIVEEAEKVVSPEDAERLREALERAKREAEEE; -0.0926
FBXL12_hotspot_9_115 (protein) RTILVVASANTVERVRSTLETALKISIGLAEAGHKVILLIAAATEEVLEKAKELLETELKPLVEKLKELGVEVKEPVLYEEAEPLKEEILEEIDEEEEEE; 0.00902
FBXL12_hotspot_186_41 (protein) MEVRVSVPADAPLEVVRSTMKYAVELAKELKERGELEALASLGKSLVKLRKELKKAGAPEEKLKAVDEAIKEVAKILEEALKEHPDNEELKKALEELKKA; 0.34

q: Look up and report measured median log2 fold change for this entry: FBXL12_hotspot_67_86 (protein) MLRLLVIRIRAETVEEARRSLALAEAYVRAARARGWRVLVVAWAATPEVAALFRERLAELEREYGARTVLIEDRENGEEELARTTARLKAELLAEMDEEE
a: -0.304

q: Look up and report measured median log2 fold change for this entry: FBXL12_hotspot_35_60 (protein) MRTVRVVFEGTSPEGARYMALAAALAARELGARVEVRLDPSESREVKVIAAALRVLAEGRPLEEVVEELGLTEEEIEEMEKILEELREEVERLSAELRAR
a: -0.434

q: Look up and report measured median log2 fold change for this entry: FBXL12_hotspot_35_62 (protein) MRRVVVRFTSPTPEGARYMAVTALLASRELGAEVEIEVAPDASLEIRRIAAALYALVTGVPVSEALARFGLPESEAPAVEAEAERLRAEVDEELARLRAR
a: 0.1

q: Look up and report measured median log2 fold change for this entry: FBXL12_hotspot_9_103 (protein) MTVLVVGRATTPESVRTTVRTAVEIAEGLVAAGHEVVLILYAADPEVAEVLRRTVEEEFGERVAALRAAGARVVVAPDLEAGERAKREALEEIERREEEE
a: 0.0779

q: Look up and report measured median log2 fold change for this entry: FBXL12_hotspot_54_67 (protein) KTVTLVLRATTVEALRTTLATGVAIAKGLLAAGIRVRVVIRADSEDVLEATRIATRAAAELEALGAEDITVEIKVETEEEREEVEREAARVRAEAEAERA
a: -0.0916

q: Look up and report measured median log2 fold change for this entry: FBXL12_hotspot_9_104 (protein) KHIVIVASASTREAFLNSARTALEIAIGLAKAGHKVTVILHHTRPETAEEARAAVKKELAELIEEAKELGIEIRFAATEEELERLLEEALREADEEEERE
a: 0.00127
